Experiment: Half life in human liver microsomes after 10 to 60 mins in presence of NADPH by LC/MS/MS analysis
Type: ADME, microsome
Value kind: half-life

Would you please look over these solved cases?
CCCCCCOc1ccc(-c2nc(C)c(/C(C)=N/NC(=N)N)s2)cc1 | > 4 h
CCCCOc1ccc(-c2nc(C)c(/C(C)=N/NC(=N)N)s2)cc1 | > 4 h
C/C(=N\NC(=N)N)c1sc(-c2ccc(OC3CCCCCC3)cc2)nc1C | > 4 h

# context switch: different compound, same half-life
Look up and state reported half-life for CCCCc1ccc(-c2nc(C)c(/C(C)=N/NC(=N)N)s2)cc1 0.48 h

###

Tested on: Staphylococcus aureus
Assay: Bactericidal activity against vancomycin-resistant Staphylococcus aureus VRSA10 clinical isolate after 24 hrs
Format: functional
Details: VRSA10, 24 h
Value kind: MBC (µg/mL)
Numbers only, in µg/mL.

Below: 8 compounds and their reported MBC.
CCCCCCCOc1ccc(-c2nc(C)c(/C(C)=N/NC(=N)N)s2)cc1 | 2
C/C=C/COc1ccc(-c2nc(C)c(/C(C)=N/NC(=N)N)s2)cc1 | 32
CCCCCCCCCOc1ccc(-c2nc(C)c(/C(C)=N/NC(=N)N)s2)cc1 | 16
C/C(=N\NC(=N)N)c1sc(-c2ccc(OCCCC(C)C)cc2)nc1C | 16
C/C(=N\NC(=N)N)c1sc(-c2ccc(OC3CCCC3)cc2)nc1C | 8
CCCCCCOc1ccc(-c2nc(C)c(/C(C)=N/NC(=N)N)s2)cc1 | 4
C/C(=N\NC(=N)N)c1sc(-c2ccc(OCC(C)C)cc2)nc1C | 32
CC(=O)NC[C@H]1CN(c2ccc(N3CCOCC3)c(F)c2)C(=O)O1 | 16

Could I get MBC for every one of these entries?
1. C/C(=N\NC(=N)N)c1sc(-c2ccc(OCCC(C)C)cc2)nc1C
2. C/C(=N\NC(=N)N)c1sc(-c2ccc(OC3CCCCCC3)cc2)nc1C
3. CCCCCCCCOc1ccc(-c2nc(C)c(/C(C)=N/NC(=N)N)s2)cc1

1. 32
2. 4
3. 4

###

Please go through the items and note down their half-life.
Assay: Half life in human liver microsomes after 10 to 60 mins in absence of NADPH by LC/MS/MS analysis
Assay type: ADME, microsome

C/C(=N\NC(=N)N)c1sc(-c2ccc(OC3CCCCCC3)cc2)nc1C | > 4 h
CCCCOc1ccc(-c2nc(C)c(/C(C)=N/NC(=N)N)s2)cc1 | > 4 h
CCCCCCOc1ccc(-c2nc(C)c(/C(C)=N/NC(=N)N)s2)cc1 | > 4 h

Read the next record carefully.
Provide only the value of recorded half-life for CCCCc1ccc(-c2nc(C)c(/C(C)=N/NC(=N)N)s2)cc1 > 1 h

###

Test: Intrinsic clearance in human liver microsomes after 10 to 60 mins in presence of NADPH by LC/MS/MS analysis
Type: ADME, microsome
Conditions: read-out: CLH
Value kind: microsomal CLint

Worked set:
CCCCc1ccc(-c2nc(C)c(/C(C)=N/NC(=N)N)s2)cc1 | 80.3 µL/min/mg
C/C(=N\NC(=N)N)c1sc(-c2ccc(OC3CCCCCC3)cc2)nc1C | < 9.6 µL/min/mg
CCCCCCOc1ccc(-c2nc(C)c(/C(C)=N/NC(=N)N)s2)cc1 | < 9.6 µL/min/mg
CCCCOc1ccc(-c2nc(C)c(/C(C)=N/NC(=N)N)s2)cc1 | < 9.6 µL/min/mg

Now consider a different molecule.
Input CC(=O)CC(c1ccccc1)c1c(O)c2ccccc2oc1=O (stereo not given) , output reported microsomal CLint. < 9.6 µL/min/mg
